MEASUREMENT TARGET: T1, human ACVR2A (human, UniProt P27037 20-135, limits assumed); note: test concentration or dose not given here
T1 construct: coated antigen of the initial ELISA; also called activin receptor, type II A
T1 sequence (P27037 20-135 limits assumed): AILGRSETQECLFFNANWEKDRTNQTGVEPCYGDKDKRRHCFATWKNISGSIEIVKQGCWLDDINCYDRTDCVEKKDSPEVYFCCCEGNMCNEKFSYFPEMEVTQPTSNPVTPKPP
MEASUREMENT DESCRIPTION: ELISA
RECORDED ENDPOINT: optical density (OD)
Numeric answer only, unit OD assumed.

[ask] // lookup optical density for 375_A07 (antibody, V domains shown, Group III) VH: EVQLLESGGGLVQPGGSLRLSCAASGFTFDSYSMNWVRQAPGKGLEWVSSINYNSGYTGYADSVKGRFTISRDNSKNTLYLQMNSLRAEDTAVYYCARGANWHDTHLDYWGQGTLVTVSS VL: DIQMTQSPSSLSASVGDRVTITCRASQSILTYLNWYQQKPGKAPKLLIYAATSRASGVPSRFSGSGSGTDFTLTISSLQPEDFATYYCQQSYDTPLTFGGGTKVEIK
[reply] 3.58

[ask] // lookup optical density for 373_A09 (antibody, V domains shown, Group III) VH: EVQLLESGGGLVQPGGSLRLSCAASGFTFDSYSMNWVRQAPGKGLEWVAGINYNGGYTSYADSVKGRFTISRDNSKNTLYLQMNSLRAEDTAVYYCARGANWHDTALDYWGQGTLVTVSS VL: DIQMTQSPSSLSASVGDRVTITCRASQSILTYLNWYQQKPGKAPKLLIYAATSLASGVPSRFSGSGSGTDFTLTISSLQPEDFATYYCQQSYDTPLTFGGGTKVEIK
[reply] 3.66

We next turn to a different binder, shown below.
[ask] // lookup optical density for 374_D10 (antibody, V domains shown, Group III) VH: EVQLLESGGGLVQPGGSLRLSCAASGFTFSSYGMHWVRQAPGKGLEWVASINYNGGYTSYADSVKGRFTISRDNSKNTLYLQMNSLRAEDTAVYYCARGANWHDTHLDYWGQGTLVTVSS VL: DIQMTQSPSSLSASVGDRVTITCRASQSILTYVNWYQQKPGKAPKLLIYAATSRASGVPSRFSGSGSGTDFTLTISSLQPEDFATYYCQQSYDNPLTFGGGTKVEIK
[reply] 3.56

// provenance: patent US20210380703A1
